# System: Meloidogyne incognita
# procedure_details: Nematicidal activity against Meloidogyne incognita assessed as larval mortality at 1% drug concentration after 72 hrs
# Format: functional
Give measured Activity for each item. Keep answers brief.
Numbers only, in %.

Solved entries:
• COc1ccc(-c2cc(=O)c3c(O)c(OC)c(O[C@@H]4O[C@H](COC(C)=O)[C@@H](O)[C@H](O)[C@H]4O)cc3o2)cc1 [LANTANONE] = 95
• CC(=O)O[C@@H]1C[C@@H](C)[C@H](C)[C@H]2C3=CC[C@@H]4[C@]56CC[C@@](O)(OC5)C(C)(C)C6CC[C@@]4(C)[C@]3(C)CC[C@]21C(=O)O (some centres undefined) [CAMARINIC ACID] = 100
• COc1ccc(-c2cc(=O)c3c(O)c(OC)c(O[C@@H]4O[C@H](CO)[C@@H](O)[C@H](O)[C@H]4O)cc3o2)cc1 [LINAROSIDE] = 90

Next item in the queue.
Dear colleague, I am looking for the recorded Activity of the following molecule: CNC(=O)Oc1cccc2c1OC(C)(C)C2 [CARBOFURAN]
100

---

# Tested on: Meloidogyne incognita
# procedure_details: Nematicidal activity against Meloidogyne incognita assessed as larval mortality at 1% drug concentration after 48 hrs
# Assay type: functional
readout: Activity (%)
Answers are plain numbers, in %.

Below are worked cases with known answers.
• CC(=O)O[C@@H]1C[C@@H](C)[C@H](C)[C@H]2C3=CC[C@@H]4[C@]56CC[C@@](O)(OC5)C(C)(C)C6CC[C@@]4(C)[C@]3(C)CC[C@]21C(=O)O (some centres undefined) = 100
• CNC(=O)Oc1cccc2c1OC(C)(C)C2 = 100
• COc1ccc(-c2cc(=O)c3c(O)c(OC)c(O[C@@H]4O[C@H](CO)[C@@H](O)[C@H](O)[C@H]4O)cc3o2)cc1 [LINAROSIDE] = 90

// next entry
State the recorded Activity for this entry: `COc1ccc(-c2cc(=O)c3c(O)c(OC)c(O[C@@H]4O[C@H](COC(C)=O)[C@@H](O)[C@H](O)[C@H]4O)cc3o2)cc1`
95

Recorded values, source ChEMBL document CHEMBL1142624.
